# assay_protocol: inhibition of PAO1 biofilm formation – strain PAO1, LB-PBS medium, absorbance 600 nm, primary screen (AID 1176); further: test concentration not given here
# stated_conditions: P. aeruginosa PAO1 growth/biofilm, A600, 12 h; higher = more signal
So basically: z-score at 0.6 or higher? That is True. Lower than 0.6? That is False.

The following compounds have reported results that may help.
{"compound": "COc1cccc(C[C@H]2C[C@@H](CO[Si](C(C)C)(C(C)C)C(C)C)N3C(=O)[C@]4(C(C)=O)O[C@]23[C@H]2C(=O)N(C)C(=O)[C@H]24)c1", "classification": "True"}
{"compound": "COCCOC(=O)N1C(=O)[C@@]2(c3cc(C#CC4(O)CCCCCC4)ccc31)[C@H](C(=O)N1CCc3cc(OC)c(OC)cc3C1)[C@H]1C(=O)O[C@H](c3ccccc3)[C@H](c3ccccc3)N1[C@@H]2c1ccccc1OCCO", "classification": "True"}
{"compound": "COc1ccc(C(=O)Nc2ccc(CN3C(=O)[C@]4(O[C@H](CCn5cc([C@H](O)c6ccccc6)nn5)[C@@H]([Si](C)(C)c5ccc(OC)cc5)[C@@H]4C)c4ccccc43)cc2)cc1", "classification": "True"}

**Q:** Does `C=C(/C(=C/C[C@@H](OC(C)=O)c1ccccc1OCCO)c1cnc2ccccc2c1)C(C)C` have a reported z-score of at least 0.6?
**A:** False

**Q:** Confirm if z-score reported for the compound `CN(C)C(=O)[C@@]1(CCS(=O)(=O)c2ccccc2)N=C(c2ccc(OCCCO)cc2)O[C@H]1c1ccccc1CN=[N+]=[N-]` is 0.6 or above.
**A:** False

**Q:** I'd appreciate it if you could say whether `COc1ccc([Si](C)(C)[C@@H]2[C@@H](CCO)O[C@]3(C(=O)N(Cc4ccc(N5C(=O)c6ccccc6Oc6ccccc65)cc4)c4ccccc43)[C@H]2C)cc1` has z-score at least equal to 0.6.
**A:** True

**Q:** Does the reported z-score for `COC(=O)C(CC#Cc1ccc2c(c1)[C@]1(C(=O)N2)[C@H](c2ccccc2OCCO)N2[C@H](c3ccccc3)[C@H](c3ccccc3)OC(=O)[C@H]2[C@@H]1C(=O)Nc1nc2ccccc2s1)C(=O)OC` fall at or above the 0.6 mark?
**A:** True

**Q:** Could you verify whether the entry CC1CC/C=C\[C@H]2OC34C=CCN(c5ccc(Cl)cc5)C(=O)[C@H]3N(C(CO)C(C)C)C(=O)[C@]4(C)C2C(=O)O1 (stereo partly specified) shows z-score of no less than 0.6?
**A:** False

**Q:** Does the compound `C=C(COC)C(=O)CC[C@H](OC(=O)c1ccccc1-c1ccccc1C(=O)O)c1ccc(OCCO)cc1` have recorded z-score that is 0.6 or more?
**A:** True

**Q:** Exam item: decide whether the reported z-score for `COCCCNC(=O)[C@@]1(Cc2ccccc2)COC(c2ccc(OCCCO)cc2)=N1` is at least 0.6.
**A:** False

**Q:** Check if z-score >= 0.6 (inclusive). Item: `COc1ccccc1CN1C(=O)c2ccccc2[C@](Cc2ccccc2I)(C(=O)NCCN2CCOCC2)[C@@H]1c1ccc(CO)cc1`
**A:** True
